Data provenance is PubChem BioAssay AID1159580.

Experiment: chemical genetic growth profiling, strain panel (AID 1159580);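 further: tested at 20 µM; growth read once vehicle control cultures reached saturation at 30 °C; lower values mean less growth of the strain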
Conditions: S. cerevisiae deletion strains, growth OD, locus YNL233W, strain BNI4, hits give low values
The campaign covered roughly 5,500 compounds. About 2,000 (36%) were called active. Roughly 18% stayed inconclusive and do not appear here. The list shows a part of the results.
Each record is given TRUE if its reported normalized growth is strictly below 1. Records at or above 1 are given FALSE.

Completed entries (count: 5):
INSERT INTO measurements (compound, discrete_label) VALUES
  ('C=C/C(C)=C\CC1C(C)(O)CCC2C(C)(C)CCCC21C (centres undefined)', 'TRUE'),
  ('Clc1ccccc1C(c1ccccc1)(c1ccccc1)n1ccnc1', 'TRUE'),
  ('CC(=O)/C=C\[C@@H]1[C@@]2(C)CCCC(C)(C)C2CC[C@@]1(C)O (some centres undefined)', 'TRUE'),
  ('Cc1cc(C(C)(C)C)c(O)c(C(C)(C)C)c1', 'TRUE'),
  ('N[C@H](C(=O)O)[C@@H]1CC(Cl)=NO1', 'TRUE');

Read the next record carefully.
Just wondering, is normalized growth of Nc1c2c(nc3ccccc13)CCCC2O (centres undefined) below 1?
FALSE
